molecular target: Bs-CspB K7A (Bacillus subtilis, UniProt P32081 1-67, K7A); test: tryptophan fluorescence quenching
property label: Kd (nM)
Unit nM implied. Number only.

Exam item: For TTTTTTT (ssDNA) [dT7] , what is its reported Kd?
Marked response: 6.4
